FYI, the data here is from PubChem BioAssay (NCATS).

target: Calcium and integrin-binding protein 1 (Homo sapiens); assay: Primary qHTS for Identification of Calcium Integrin Binding Protein 1 (CIB1) Competitor (AID 1508620); settings: CIB1-GST / FITC-alphaIIb peptide fluorescence polarization; series mostly up to 114 µM;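 also: GST tagged CIB1 binding a fluorescein labelled alphaIIb integrin peptide tracer; top concentration of the series differs between compounds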
Records with an inconclusive call do not appear. Active and inactive are the calls of the source. Calls follow the shape of the dose curve; as a rule, active = well fitted inhibition curve with a large enough effect; inconclusive = small, poorly fitted or top-dose-only effect; inactive = flat fitted curve, though single readings scatter.
endpoint label: outcome

[
  {
    "compound": "O=C1CCCC2=C1C(c1cccnc1)N=C(Nc1nc3ccccc3o1)N2 (configuration not stated)",
    "system": "Calcium and integrin-binding protein 1 (Homo sapiens)",
    "endpoint result": "inactive"
  },
  {
    "compound": "O=C(OCc1c(-c2ccccc2)no[n+]1[O-])c1ccccc1",
    "system": "Calcium and integrin-binding protein 1 (Homo sapiens)",
    "endpoint result": "inactive"
  },
  {
    "compound": "COc1ccc(OC)c(-c2nnc3n2N=C(c2c(OC)cccc2OC)CS3)c1",
    "system": "Calcium and integrin-binding protein 1 (Homo sapiens)",
    "endpoint result": "inactive"
  },
  {
    "compound": "Cc1ccc(NS(=O)(=O)c2cc3c(cc2N[C@H](C)CO)NC(=O)CC3)cc1C",
    "system": "Calcium and integrin-binding protein 1 (Homo sapiens)",
    "endpoint result": "inactive"
  },
  {
    "compound": "COc1ccc(C2c3c(n(CCCc4ccccc4)cnc3=N)Oc3ccc4ccccc4c32)cc1OC (configuration not stated)",
    "system": "Calcium and integrin-binding protein 1 (Homo sapiens)",
    "endpoint result": "inactive"
  }
]

For each listed entry, give its outcome.
1. CC(C)Oc1ccc(-c2ccc(=O)n(CC(=O)NCCc3ccccc3)n2)cc1
2. S=C(Nc1ccc(Cl)c(Cl)c1)Nc1nnc(-c2ccncc2)o1
3. CN(Cc1cccs1)c1ncnc2ccc(-c3ccc4c(c3)OCO4)cc12
4. Cc1ccc(NS(=O)(=O)c2ccc3c(c2)N(C)CCO3)cc1C
5. Cc1ccc(NC(=O)CN2C(=O)N/C(=C\c3cccn3-c3ccc(C(=O)NC#N)cc3)C2=O)cc1
6. Clc1nc(CN2CCOCC2)nc2sc3c(c12)CCCC3
7. Cc1cc(C)nc(NC(=S)N2CCN(c3nc(C)cnc3C)CC2)c1
8. O=C1CCc2cc(S(=O)(=O)Nc3ccncc3)ccc2N1

Result block:
1: inactive; 2: inactive; 3: inactive; 4: inactive; 5: inactive; 6: inactive; 7: inactive; 8: inactive

For every record below, what is its outcome?
1. Cc1ccc2nc(NC3=NC4(CCCC4)C4=C(CCCC4=O)N3)oc2c1
2. O=C1CCCC2=C1C(c1[nH]ncc1Cl)N=C(c1nc3ccccc3o1)N2 (configuration not stated)
3. Cc1ccnc(NC(=S)N2CCN(c3ccccc3C(F)(F)F)CC2)c1

Result block:
inactive
inactive
inactive
